These measurements were taken from patent US20170088624A1.

# TARGET_DESC: Full length human CD40 (huCD40) on cells (human, UniProt P25942 21-277)
# Sequence (P25942 21-277): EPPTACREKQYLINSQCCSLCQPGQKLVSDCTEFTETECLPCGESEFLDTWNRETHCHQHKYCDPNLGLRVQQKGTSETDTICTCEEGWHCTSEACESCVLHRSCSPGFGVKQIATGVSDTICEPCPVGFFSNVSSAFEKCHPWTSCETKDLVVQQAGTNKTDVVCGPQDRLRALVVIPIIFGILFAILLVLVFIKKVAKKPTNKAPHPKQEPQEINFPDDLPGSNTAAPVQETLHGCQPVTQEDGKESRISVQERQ
# MEASUREMENT_PROTOCOL: cell-based or functional assay
Reported values of DC EC50, CD80 surface expression, with cross-linker for individual entries
MEASURED_METRIC: DC EC50, CD80 surface expression, with cross-linker (ng/mL)

BINDER: C40M18 (antibody, human IgG1, lambda, V domains shown, Full-length IgG1/lambda; from OmniRat (OMT); VH C40H48, VL C40L64) VH: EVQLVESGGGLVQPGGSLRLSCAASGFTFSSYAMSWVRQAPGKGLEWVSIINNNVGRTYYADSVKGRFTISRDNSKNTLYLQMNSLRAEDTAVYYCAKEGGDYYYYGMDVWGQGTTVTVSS VL: SYELTQPPSVSVSPGQTASITCSGDKLGDKYVCWYQQKPGQSPVVVIYQDSKRPSGIPERFSGSNSGNTATLTISGTQAMDEAYYYCQAWVSSTVVFGGGTKLTVLG
UNIT_NAME: ng/mL
READOUT_VALUE: 52.3

BINDER: C40M12 (antibody, human IgG1, lambda, V domains shown, Full-length IgG1/lambda; from OmniRat (OMT)) VH: EVQLVESGGGLVQPGGSLRLSCAASGFTFGSYAMSWVRQAPGKGLEWVSVISDSGGRTYYADSVKGRFTISRDYSKNTLYLQMNSLRAEDTAVYYCAKEGGDYYYYGMDVWGQGTTVTVSS VL: SYELTQPPSVSVSPGQTASIICSGDKLGDKYVCWYQQKPGQSPVVVIYHDNKRPSGIPERFSGSNSGNTATLTISGTQAMDEADYYCQVWDSSTVVFGGGTKLTVLG
UNIT_NAME: ng/mL
READOUT_VALUE: 0.00393

BINDER: C40M67 (antibody, human IgG1, kappa, V domains shown, Full-length IgG1/kappa; from phage display) VH: EVQLLESGGGLVQPGGSLRLSCAASGFTFSDYAMNWVRQAPGKGLEWVSGIKSGGSSKYYADSVKGRFTISRDNSKNTLYLQMNSLRAEDTAVYYCAKHVDFYRALDYWGQGTLVTVSS VL: EIVLTQSPGTLSLSPGERATLSCRASQSVKNSSLAWYQQKPGQAPRLLIYTASSRATGIPDRFSGSGSGTDFTLTISRLEPEDFAVYYCQQSSAPPWTFGQGTKVEIKR
UNIT_NAME: ng/mL
READOUT_VALUE: 49.9
